Recorded values, source ChEMBL document CHEMBL5291721.

- ASSAY_TARGET: 5-hydroxytryptamine receptor 2A (Homo sapiens, UniProt P28223); note: assay procedure not described here
- Sequence (P28223 whole entry): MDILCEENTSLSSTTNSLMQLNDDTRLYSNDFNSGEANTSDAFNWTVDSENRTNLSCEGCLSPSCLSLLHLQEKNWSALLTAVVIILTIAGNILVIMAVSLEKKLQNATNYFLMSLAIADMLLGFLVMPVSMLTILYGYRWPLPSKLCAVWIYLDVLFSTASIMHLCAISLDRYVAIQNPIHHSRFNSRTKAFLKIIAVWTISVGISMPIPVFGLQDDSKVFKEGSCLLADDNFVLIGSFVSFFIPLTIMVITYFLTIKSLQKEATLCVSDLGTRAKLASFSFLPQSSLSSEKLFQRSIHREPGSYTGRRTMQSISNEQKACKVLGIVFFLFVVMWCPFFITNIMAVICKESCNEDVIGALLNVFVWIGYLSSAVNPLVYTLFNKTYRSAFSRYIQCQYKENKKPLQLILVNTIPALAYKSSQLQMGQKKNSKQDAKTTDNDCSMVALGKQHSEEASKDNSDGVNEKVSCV
- Assay type: functional, cell-based
ASSAY_ENDPOINT: AC50

molecule=CO/N=C(\C(=O)N[C@@H]1C(=O)N2C(C(=O)[O-])=C(C[n+]3cccc4c3CCC4)CS[C@H]12)c1csc(N)n1 assay_endpoint=AC50 reported_result="> 30 µM"
molecule="O=C(O)CSCC(=O)NC1CCSC1=O (stereo not given)" assay_endpoint=AC50 reported_result="> 30 µM"
molecule="CC(NCCc1ccc(O)cc1)C(O)c1ccc(O)cc1 (stereo not given)" assay_endpoint=AC50 reported_result="> 30 µM"
molecule="NS(=O)(=O)c1cc2c(cc1C(F)(F)F)NC(Cc1ccccc1)NS2(=O)=O (stereo not given) [BENDROFLUMETHIAZIDE]" assay_endpoint=AC50 reported_result="> 10 µM"
molecule=CC(C)N(CCCCOCC(=O)NS(C)(=O)=O)c1cnc(-c2ccccc2)c(-c2ccccc2)n1 assay_endpoint=AC50 reported_result="> 30 µM"
